Experiment: chemical genetic growth profiling, strain panel (AID 1159580);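 further: tested at 20 µM; growth read once vehicle control cultures reached saturation at 30 °C; 1 = growth at the plate median or of vehicle wells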
Details: S. cerevisiae deletion strains, growth OD, locus YLR268W, strain sec22, stronger effect = lower value
Screen size: about 5,500 compounds; about 2,000 (36%) were called active. About 18% were inconclusive and are not listed. Some of the results follow.

molecule | normalized growth
COc1ccc([C@H]2Oc3c(I)c(OC)cc(OC)c3C[C@@H]2O)cc1OC | 1.05
Cc1ccccc1C(OCCN(C)C)c1ccccc1 (stereo not given) | 1.05
O=C(O[C@@H]1Cc2c(O)cc(O)cc2O[C@@H]1c1ccc(O)c(O)c1)c1cc(O)c(O)c(O)c1 | 0.94
Clc1ccc(C(OCCN2CCCCC2)c2ccccc2)cc1 (stereo not given) | 0.96
CC(=O)Oc1cc(OC(C)=O)c2c(c1)O[C@H](c1ccc(OC(C)=O)c(OC(C)=O)c1)[C@@H](OC(C)=O)C2 | 0.958
OCC(O)CN1CCN(c2ccccc2)CC1 (stereo not given) | 0.953
CCn1cc(C(=O)O)c(=O)c2cc(F)c(N3CCNCC3)nc21 | 1.01
O=C(Oc1cc(OC(=O)c2ccccc2)c2c(c1)O[C@H](c1ccc(OC(=O)c3ccccc3)c(OC(=O)c3ccccc3)c1)[C@@H](OC(=O)c1ccccc1)C2)c1ccccc1 | 1.04
CN(C)CCOC(c1ccc(Cl)cc1)c1ccccn1 (stereo not given) | 1
O=C1c2ccc(O)cc2O[C@H](c2cc(O)c(O)c(O)c2)[C@H]1O | 1.01

* * *

Experiment: chemical genetic growth profiling, strain panel (AID 1159580)
Conditions: S. cerevisiae deletion strains, growth OD, locus YGR252W, strain gcn5, stronger effect = lower value
Out of some 5,500 compounds screened, about 2,000 (36%) were called active. About 18% were inconclusive and are not listed. The list shows a part of the results.

molecule | normalized growth
OCC(O)CN1CCN(c2ccccc2)CC1 (centres undefined) | 1.08
CCC(C)C(=O)O[C@@H]1C[C@@]2(C)[C@H](c3ccoc3)OC(=O)CC23OC2(C)OC34[C@H](OC(=O)C(C)C)[C@@]3(O)[C@@H](OC(=O)C5(C)OC5C)[C@@]5(C)C[C@]3(O)[C@@](C)([C@H]5CC(=O)OC)C14O2 (some centres undefined) | 1.15
O=C(Oc1cc(O)cc2c1C[C@@H](OC(=O)c1cc(O)c(O)c(O)c1)[C@@H](c1cc(O)c(O)c(O)c1)O2)c1cc(O)c(O)c(O)c1 | 0.658
COC(=O)CC1C2(C)CC34OC5(C)OC6(C7/C(=C(/O)C(C)C)C(=O)OC(c8ccoc8)C7(C)C(OC(=O)C(C)C)C(OC)C6(O5)C13C)C(OC)C4(OC)C2OC(C)=O (centres undefined) | 0.937
COc1ccc(CN(CCN(C)C)c2ccccn2)cc1 | 1.12
CCC(C)C(=O)O[C@@H]1C[C@@]2(C)[C@H](c3ccoc3)OC(=O)CC23OC2(C)O[C@]14[C@]1(C)[C@@H](CC(=O)OC)C5(C)CC1(O)[C@](O)(C5OC(=O)C1(C)OC1C)[C@@H](OC(C)=O)[C@]34O2 (some centres undefined) | 1.04
CC(=O)O[C@H]1C[C@@H](OC(C)=O)C(C)(C)C2CC(=O)[C@]3(C)C(CC[C@@]4(C)[C@H](C(=O)O)OC(=O)C5OC543)[C@]21C (some centres undefined) | 1.07
CC(=O)Oc1cc(OC(C)=O)c2c(c1)O[C@H](c1ccc(OC(C)=O)c(OC(C)=O)c1)[C@@H](OC(C)=O)C2 | 1.1
COC(=O)C[C@H]1C2(C)CC34OC5(C)O[C@@]6([C@H](OC)C(OC(=O)C(C)C)[C@]7(C)C(/C(=C(/OC)C(C)C)C(=O)O[C@H]7c7ccoc7)[C@@]6(O5)[C@H](OC)[C@@]3(OC)C2OC(C)=O)[C@]14C (some centres undefined) | 0.994
COc1ccc(OC)c(C(O)CNC(=O)CN)c1 (centres undefined) | 0.956
O=C(O)/C=C/c1ccc(O)c(O)c1 | 0.981
C=C1C2CC[C@@]3(C)[C@H](c4ccoc4)OC(=O)C[C@]13O[C@H]1CC(=O)C(C)(C)[C@H](C(OC(C)=O)C(=O)OC)[C@@]21C (some centres undefined) | 1.02
NS(=O)(=O)c1cc2c(cc1Cl)NC=NS2(=O)=O | 1.02
O=C(O[C@@H]1Cc2c(O)cc(O)cc2O[C@@H]1c1cc(O)c(O)c(O)c1)c1cc(O)c(O)c(O)c1 | 0.864

* * *

Test: chemical genetic growth profiling, strain panel (AID 1159580);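 further: tested at 20 µM; growth read once vehicle control cultures reached saturation at 30 °C; 1 = growth at the plate median or of vehicle wells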
Conditions: S. cerevisiae deletion strains, growth OD, locus YER155C, strain BEM2 (second series)
Out of some 5,500 compounds screened, about 2,000 (36%) were called active. Not shown: some 18% with an inconclusive outcome. No stated cut-off is given here; in the data, active means normalized growth mostly below about 0.91 (no sharp cut-off); inconclusive means no clear call, values can overlap the other calls; inactive means mostly above about 0.92. Some of the results follow.
Labels: label 1 (active), label 0 (inactive)

compound | category_label
Oc1cc(O)c2c(c1)O[C@H](c1ccc(O)c(O)c1)[C@H](O)C2 | label 0
Cc1ccc(S(=O)(=O)NC(=O)NN2CCCCCC2)cc1 | label 0
CCCCNC(=O)NS(=O)(=O)c1ccc(C)cc1 | label 0
C[n+]1c2cc(N)ccc2cc2ccc(N)cc21 | label 1
C=C[C@@](C)(O)CCC1C(=C)C[C@H](OC(C)=O)C2C(C)(C)CCCC12C (some centres undefined) | label 0
CCC(C)C(=O)O[C@@H]1C[C@@]2(C)[C@H](c3ccoc3)OC(=O)CC23OC2(C)OC34[C@H](OC(=O)C(C)C)[C@@]3(O)[C@@H](OC(=O)C5(C)OC5C)[C@@]5(C)C[C@]3(O)[C@@](C)([C@H]5CC(=O)OC)C14O2 (some centres undefined) | label 0
CNC(=O)O/N=C(\C)SC | label 0
CC[C@@]1(O)C[C@H](O[C@H]2C[C@H](N(C)C)[C@H](O)[C@H](C)O2)c2c(cc3c(c2O)C(=O)c2c(O)cccc2C3=O)[C@H]1C(=O)OC | label 0
Oc1cc(O)c2c(c1)O[C@H](c1ccc(O)c(O)c1)[C@@H](O)C2 | label 0
COc1ccc([C@H]2Oc3c(I)c(OC)cc(OC)c3C[C@@H]2O)cc1OC | label 0
Oc1cc(O)c2c(c1)O[C@H](c1cc(O)c(O)c(O)c1)[C@H](O)C2 | label 0
N=c1ccn2c(n1)OC1C(O)C(CO)OC12 (centres undefined) | label 0
COC(=O)C[C@H]1C2(C)CC34OC5(C)O[C@@]6([C@H](OC(C)=O)C(OC(C)=O)[C@]7(C)C(/C(=C(/O)C(C)C)C(=O)O[C@H]7c7ccoc7)[C@@]6(O5)[C@H](OC(C)=O)[C@@]3(O)C2OC(=O)C(C)C)[C@]14C (some centres undefined) | label 0
CCC(C)C(=O)O[C@@H]1C[C@@]2(C)[C@H](c3ccoc3)OC(=O)CC23OC2(C)O[C@]14[C@]1(C)[C@@H](CC(=O)OC)C5(C)CC1(O)[C@](O)(C5OC(=O)C1(C)OC1C)[C@@H](OC(C)=O)[C@]34O2 (some centres undefined) | label 0
NCCc1cnc[nH]1 | label 0
CCCCCCCCC(=O)NCc1ccc(O)c(OC)c1 | label 0
O=C(NC(=O)c1ccccc1Cl)Nc1ccc(OC(F)(F)F)cc1 | label 0
Oc1ccc2c(c1)O[C@H](c1ccc(O)c(O)c1)[C@@H](O)C2 | label 0
C=C1CCC2[C@](C)(CO)[C@H](O)CC[C@@]2(C)[C@@H]1C/C=C1/C(=O)OC[C@H]1O (some centres undefined) | label 0

* * *

# normalized growth values compiled below
Assay: chemical genetic growth profiling, strain panel (AID 1159580);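 further: tested at 20 µM; growth read once vehicle control cultures reached saturation at 30 °C; 1 = growth at the plate median or of vehicle wells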
Conditions: S. cerevisiae deletion strains, growth OD, locus YNL224C, strain SQS1, stronger effect = lower value
Screen size: about 5,500 compounds; about 2,000 (36%) were called active. Inconclusive results (about 18%) are left out. Some of the results follow.

compound | normalized growth
CC(C)(Sc1ccc(CCN(CCCCC2CCCCC2)C(=O)NC2CCCCC2)cc1)C(=O)O | 1
CN1C2CCC1CC(OC(c1ccccc1)c1ccc(Cl)cc1)C2 (centres undefined) | 1.05
OCc1cc(C(O)CNCCCCCCOCCCCc2ccccc2)ccc1O (centres undefined) | 1.01
C#CCN(C)Cc1ccccc1 | 1.04
O=C(O)CCCc1ccc(N(CCCl)CCCl)cc1 | 1
NC(Cc1ccc(N(CCCl)CCCl)cc1)C(=O)O (centres undefined) | 1.01
CNCC[C@@H](Oc1ccc(C(F)(F)F)cc1)c1ccccc1 | 1.02
CN1C2CCC1CC(OC(c1ccccc1)c1ccccc1N)C2 (centres undefined) | 1.03
CN1C2CCC1CC(OC(c1ccccc1)c1ccccc1)C2 (centres undefined) | 1.01

* * *

Reported normalized growth values are given for each entry in this list.
Assay: chemical genetic growth profiling, strain panel (AID 1159580);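 further: tested at 20 µM; growth read once vehicle control cultures reached saturation at 30 °C; 1 = growth at the plate median or of vehicle wells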
Conditions: S. cerevisiae deletion strains, growth OD, locus YOR070C, strain gyp1, stronger effect = lower value
About 2,000 (36%) of roughly 5,500 compounds were called active. Not shown: some 18% with an inconclusive outcome. Some of the results follow.

molecule | normalized growth
CCC(C)C(=O)O[C@@H]1C[C@@]2(C)[C@H](c3ccoc3)OC(=O)CC23OC2(C)O[C@]14[C@]1(C)[C@@H](CC(=O)OC)C5(C)CC1(O)[C@](O)(C5OC(=O)C1(C)OC1C)[C@@H](OC(C)=O)[C@]34O2 (stereo partly drawn) | 0.994
COc1cc(CNC(=O)CCCC/C=C/C(C)C)ccc1O | 0.99
CC[C@@H](C(=O)C(C)[C@@H](O)[C@H](C)CCc1ccc(C)c(O)c1C(=O)O)C1OC(CC)(C2CC[C@](O)(CC)[C@H](C)O2)C[C@@H]1C (stereo partly drawn) | 1.06
CCn1cc(C(=O)O)c(=O)c2cc(F)c(N3CCNCC3)nc21 | 0.993
Cn1c(=O)c2c(ncn2CC(O)CO)n(C)c1=O (stereo not drawn) | 0.989
NCCCS(=O)(=O)O | 1.01
NCCS(=O)(=O)O | 0.992
COc1ccc(C2CNC(=O)C2)cc1OC1CCCC1 (stereo not drawn) | 1

The reported measurements were obtained from PubChem BioAssay AID1159580.
